targetSystem: T1, 4H968-bH
T1 chain: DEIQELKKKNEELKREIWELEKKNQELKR
assayOverview: two-hybrid library CCNG1;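 further: natural log of median RNA to DNA barcode read ratio; higher means stronger binding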
measuredParameter: interaction score

>  <binder>
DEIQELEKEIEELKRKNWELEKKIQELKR [4H118-bH]

>  <interaction score>
1.49

$$$$

1. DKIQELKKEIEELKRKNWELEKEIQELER [4H2673-bH]
2. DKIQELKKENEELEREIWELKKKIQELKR [4H2702-bH]
3. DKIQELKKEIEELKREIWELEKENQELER [4H2627-bH]
Let's sort these by interaction score, smallest first. Go ahead? Labels, ranked as asked.
1, 3, 2
